- Test system: S. cerevisiae growth, flow cytometry event count, 7 d
- EXPERIMENT_SUMMARY: yeast growth inhibition by event count, dose response, cytotoxicity control for yeast caloric restriction mimetic project, powder samples (AID 504926)
- CONDITION_PARAMETERS: at 100 µM; hits give high values
Is event count decrease at least 20%? Then Met. If not, Not met.

In [3]: df
Out[3]:
                            input_smiles  classification
0           O=C(Nc1cccc2nccnc12)c1ccccc1         Not met
1  CC(C)OC(=O)CSc1nnc(-c2ccc(Cl)cc2Cl)o1             Met
2  C#CCSc1ccc(-c2ccc([N+](=O)[O-])cc2)o1             Met
3     CSc1nnc(-c2ccc([N+](=O)[O-])cc2)o1             Met
4                        Nc1ccc2nccnc2c1         Not met
5     O=C(OCc1c(F)cccc1Cl)c1cnc2ccccc2n1             Met
6       CCN(CC)C(=O)c1cccc2nc3ccccc3nc12         Not met
